assay-target: T1, Recombinant DR3-Fc (R&D Systems, cat. #943-D3) (UniProt Q93038 25-199, limits assumed)
T1 construct: dimeric MW~92 kDa; also called DR3 receptor; Fc-DR3; not shown: Fc part of the bought fusion
T1 sequence (looked up): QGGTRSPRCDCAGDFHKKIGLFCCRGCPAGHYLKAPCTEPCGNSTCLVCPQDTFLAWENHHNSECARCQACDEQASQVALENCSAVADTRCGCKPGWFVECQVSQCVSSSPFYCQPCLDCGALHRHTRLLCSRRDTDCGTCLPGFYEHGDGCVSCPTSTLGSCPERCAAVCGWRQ
assay-remarks: ELISA, DR3-Fc immobilized
measurement-kind: EC50 (nM)
Numbers only, in nM.

For orientation, consider the following solved cases.
[[record]]
binder = "TL1W25 (His-TEV-hTL1A 72-251 N207A) (ligand, also called TL1W25 (N207A)) HHHHHHENLYFQGLKGQEFAPSHQQVYAPLRADGDKPRAHLTVVRQTPTQHFKNQFPALHWEHELGLAFTKNRMNYTNKFLLIPESGDYFIYSQVTFRGMTSECSEIRQAGRPNKPDSITVVITKVTDSYPEPTQLLMGTKSVCEVGSAWFQPIYLGAMFSLQEGDKLMVNVSDISLVDYTKEDKTFFGAFLL"
test_result = 13.4

[[record]]
binder = "TL1W45 (His-TEV-TL1A E190F) (ligand, also called TL1W45 (E190F)) HHHHHHENLYFQGLKGQEFAPSHQQVYAPLRADGDKPRAHLTVVRQTPTQHFKNQFPALHWEHELGLAFTKNRMNYTNKFLLIPESGDYFIYSQVTFRGMTSECSEIRQAGRPNKPDSITVVITKVTDSYPFPTQLLMGTKSVCEVGSNWFQPIYLGAMFSLQEGDKLMVNVSDISLVDYTKEDKTFFGAFLL"
test_result = 31.4


Challenge: Which EC50 is listed for TL1W108 (His-TEV-TL1A S187A) (ligand, also called TL1W108 (S187A)) HHHHHHENLYFQGLKGQEFAPSHQQVYAPLRADGDKPRAHLTVVRQTPTQHFKNQFPALHWEHELGLAFTKNRMNYTNKFLLIPESGDYFIYSQVTFRGMTSECSEIRQAGRPNKPDSITVVITKVTDAYPEPTQLLMGTKSVCEVGSNWFQPIYLGAMFSLQEGDKLMVNVSDISLVDYTKEDKTFFGAFLL ?
Response given: 39.1
